Attribute: pKd
Target Of Assay: T1, truncated hTfR1 of SEQ ID NO:122 (human, UniProt P02786 122-760)
T1 construct: also called human TfR1; Human TfR1
T1 sequence (P02786 other isoform, or with tags, fused parts or gaps limits assumed): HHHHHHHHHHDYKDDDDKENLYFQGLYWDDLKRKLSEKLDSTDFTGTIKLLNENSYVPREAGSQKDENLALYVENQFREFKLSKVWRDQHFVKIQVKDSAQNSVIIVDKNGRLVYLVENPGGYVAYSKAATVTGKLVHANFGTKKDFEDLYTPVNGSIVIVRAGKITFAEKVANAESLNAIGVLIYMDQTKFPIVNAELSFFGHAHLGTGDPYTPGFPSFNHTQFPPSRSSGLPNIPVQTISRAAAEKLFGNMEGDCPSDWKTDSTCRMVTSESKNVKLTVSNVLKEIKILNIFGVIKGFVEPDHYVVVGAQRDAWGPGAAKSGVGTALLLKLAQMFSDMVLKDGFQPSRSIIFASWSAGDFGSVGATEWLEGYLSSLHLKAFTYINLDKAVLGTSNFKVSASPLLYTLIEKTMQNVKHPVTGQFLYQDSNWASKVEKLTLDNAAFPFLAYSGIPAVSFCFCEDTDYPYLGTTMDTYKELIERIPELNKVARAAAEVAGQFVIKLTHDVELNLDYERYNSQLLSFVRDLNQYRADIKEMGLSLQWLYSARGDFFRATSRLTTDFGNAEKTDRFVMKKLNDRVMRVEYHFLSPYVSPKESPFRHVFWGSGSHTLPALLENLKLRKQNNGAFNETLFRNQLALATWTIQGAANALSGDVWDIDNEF
Test: SPR follow-up, 4 replicates, FLAG-captured hTfR1, scFv injected
pKd: −log10 of the molar value.
Quantity Kind: pKd

INSERT INTO measurements (binder, numeric_value) VALUES
  ('h26D3 HC6 DS S122K (scFv, also called h26D3 DS S122K) scFv: HHHHHHGGGGSGGGGSGGGGSGGGGSDIQMTQSPSSVSASVGDRVTITCKSSQSLLYSTNQKNYLAWYQQKPGKAPKLLIYWASTRESGVPSRFSGSGSGTDFTLTISSLQPEDFATYYCQQYFIYPRTFGCGTKVEIKGGGGSGGGGSGGGGSGGGGSEVQLVQSGAEVKKPGSSVKVSCKASGYIFTDYNMDWVRQAPGQCLEWIGDINPDADTTSYNEKFKGRATLTVDKSTSTAYMELSSLRSEDTAVYYCARGGYSGSSYYHPMDYWGQGTLVTVKS', 7.20),
  ('h26D3 HC6 DS T91S T120K (scFv, also called h26D3 DS T91S T120K) scFv: HHHHHHGGGGSGGGGSGGGGSGGGGSDIQMTQSPSSVSASVGDRVTITCKSSQSLLYSTNQKNYLAWYQQKPGKAPKLLIYWASTRESGVPSRFSGSGSGTDFTLTISSLQPEDFATYYCQQYFIYPRTFGCGTKVEIKGGGGSGGGGSGGGGSGGGGSEVQLVQSGAEVKKPGSSVKVSCKASGYIFTDYNMDWVRQAPGQCLEWIGDINPDADTTSYNEKFKGRATLTVDKSTSTAYMELSSLRSEDSAVYYCARGGYSGSSYYHPMDYWGQGTLVKVSS', 7.26),
  ('h26D3 HC6 DS T120K (scFv, also called h26D3 DS T120K) scFv: HHHHHHGGGGSGGGGSGGGGSGGGGSDIQMTQSPSSVSASVGDRVTITCKSSQSLLYSTNQKNYLAWYQQKPGKAPKLLIYWASTRESGVPSRFSGSGSGTDFTLTISSLQPEDFATYYCQQYFIYPRTFGCGTKVEIKGGGGSGGGGSGGGGSGGGGSEVQLVQSGAEVKKPGSSVKVSCKASGYIFTDYNMDWVRQAPGQCLEWIGDINPDADTTSYNEKFKGRATLTVDKSTSTAYMELSSLRSEDTAVYYCARGGYSGSSYYHPMDYWGQGTLVKVSS', 7.15),
  ('h26D3 HC6 DS T91S S122K (scFv, also called h26D3 DS T91S S122K) scFv: HHHHHHGGGGSGGGGSGGGGSGGGGSDIQMTQSPSSVSASVGDRVTITCKSSQSLLYSTNQKNYLAWYQQKPGKAPKLLIYWASTRESGVPSRFSGSGSGTDFTLTISSLQPEDFATYYCQQYFIYPRTFGCGTKVEIKGGGGSGGGGSGGGGSGGGGSEVQLVQSGAEVKKPGSSVKVSCKASGYIFTDYNMDWVRQAPGQCLEWIGDINPDADTTSYNEKFKGRATLTVDKSTSTAYMELSSLRSEDSAVYYCARGGYSGSSYYHPMDYWGQGTLVTVKS', 7.16),
  ('h26D3 HC6 DS V11R T91A (scFv, also called h26D3 DS V11R T91A) scFv: HHHHHHGGGGSGGGGSGGGGSGGGGSDIQMTQSPSSVSASVGDRVTITCKSSQSLLYSTNQKNYLAWYQQKPGKAPKLLIYWASTRESGVPSRFSGSGSGTDFTLTISSLQPEDFATYYCQQYFIYPRTFGCGTKVEIKGGGGSGGGGSGGGGSGGGGSEVQLVQSGAERKKPGSSVKVSCKASGYIFTDYNMDWVRQAPGQCLEWIGDINPDADTTSYNEKFKGRATLTVDKSTSTAYMELSSLRSEDAAVYYCARGGYSGSSYYHPMDYWGQGTLVTVSS', 7.23),
  ('h26D3 HC6 DS V11R T120K (scFv, also called h26D3 DS V11R T120K) scFv: HHHHHHGGGGSGGGGSGGGGSGGGGSDIQMTQSPSSVSASVGDRVTITCKSSQSLLYSTNQKNYLAWYQQKPGKAPKLLIYWASTRESGVPSRFSGSGSGTDFTLTISSLQPEDFATYYCQQYFIYPRTFGCGTKVEIKGGGGSGGGGSGGGGSGGGGSEVQLVQSGAERKKPGSSVKVSCKASGYIFTDYNMDWVRQAPGQCLEWIGDINPDADTTSYNEKFKGRATLTVDKSTSTAYMELSSLRSEDTAVYYCARGGYSGSSYYHPMDYWGQGTLVKVSS', 7.31),
  ('h26D3-HC6_DS, VL-first (scFv) scFv: DIQMTQSPSSVSASVGDRVTITCKSSQSLLYSTNQKNYLAWYQQKPGKAPKLLIYWASTRESGVPSRFSGSGSGTDFTLTISSLQPEDFATYYCQQYFIYPRTFGCGTKVEIKGGGGSGGGGSGGGGSGGGGSEVQLVQSGAEVKKPGSSVKVSCKASGYIFTDYNMDWVRQAPGQCLEWIGDINPDADTTSYNEKFKGRATLTVDKSTSTAYMELSSLRSEDTAVYYCARGGYSGSSYYHPMDYWGQGTLVTVSS', 7.18);
